Recorded measurements of EC50, one per entry
STUDY TARGET: LXRα (Homo sapiens, UniProt Q13133)
Sequence (Q13133 209-447 limits assumed): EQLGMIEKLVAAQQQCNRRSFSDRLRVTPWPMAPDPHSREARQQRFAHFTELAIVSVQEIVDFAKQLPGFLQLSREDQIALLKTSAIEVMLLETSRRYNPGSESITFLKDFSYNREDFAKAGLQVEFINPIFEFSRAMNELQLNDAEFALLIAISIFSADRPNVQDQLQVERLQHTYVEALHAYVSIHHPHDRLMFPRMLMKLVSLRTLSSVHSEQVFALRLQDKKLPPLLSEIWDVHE
Sequence (Q15788 whole entry partner): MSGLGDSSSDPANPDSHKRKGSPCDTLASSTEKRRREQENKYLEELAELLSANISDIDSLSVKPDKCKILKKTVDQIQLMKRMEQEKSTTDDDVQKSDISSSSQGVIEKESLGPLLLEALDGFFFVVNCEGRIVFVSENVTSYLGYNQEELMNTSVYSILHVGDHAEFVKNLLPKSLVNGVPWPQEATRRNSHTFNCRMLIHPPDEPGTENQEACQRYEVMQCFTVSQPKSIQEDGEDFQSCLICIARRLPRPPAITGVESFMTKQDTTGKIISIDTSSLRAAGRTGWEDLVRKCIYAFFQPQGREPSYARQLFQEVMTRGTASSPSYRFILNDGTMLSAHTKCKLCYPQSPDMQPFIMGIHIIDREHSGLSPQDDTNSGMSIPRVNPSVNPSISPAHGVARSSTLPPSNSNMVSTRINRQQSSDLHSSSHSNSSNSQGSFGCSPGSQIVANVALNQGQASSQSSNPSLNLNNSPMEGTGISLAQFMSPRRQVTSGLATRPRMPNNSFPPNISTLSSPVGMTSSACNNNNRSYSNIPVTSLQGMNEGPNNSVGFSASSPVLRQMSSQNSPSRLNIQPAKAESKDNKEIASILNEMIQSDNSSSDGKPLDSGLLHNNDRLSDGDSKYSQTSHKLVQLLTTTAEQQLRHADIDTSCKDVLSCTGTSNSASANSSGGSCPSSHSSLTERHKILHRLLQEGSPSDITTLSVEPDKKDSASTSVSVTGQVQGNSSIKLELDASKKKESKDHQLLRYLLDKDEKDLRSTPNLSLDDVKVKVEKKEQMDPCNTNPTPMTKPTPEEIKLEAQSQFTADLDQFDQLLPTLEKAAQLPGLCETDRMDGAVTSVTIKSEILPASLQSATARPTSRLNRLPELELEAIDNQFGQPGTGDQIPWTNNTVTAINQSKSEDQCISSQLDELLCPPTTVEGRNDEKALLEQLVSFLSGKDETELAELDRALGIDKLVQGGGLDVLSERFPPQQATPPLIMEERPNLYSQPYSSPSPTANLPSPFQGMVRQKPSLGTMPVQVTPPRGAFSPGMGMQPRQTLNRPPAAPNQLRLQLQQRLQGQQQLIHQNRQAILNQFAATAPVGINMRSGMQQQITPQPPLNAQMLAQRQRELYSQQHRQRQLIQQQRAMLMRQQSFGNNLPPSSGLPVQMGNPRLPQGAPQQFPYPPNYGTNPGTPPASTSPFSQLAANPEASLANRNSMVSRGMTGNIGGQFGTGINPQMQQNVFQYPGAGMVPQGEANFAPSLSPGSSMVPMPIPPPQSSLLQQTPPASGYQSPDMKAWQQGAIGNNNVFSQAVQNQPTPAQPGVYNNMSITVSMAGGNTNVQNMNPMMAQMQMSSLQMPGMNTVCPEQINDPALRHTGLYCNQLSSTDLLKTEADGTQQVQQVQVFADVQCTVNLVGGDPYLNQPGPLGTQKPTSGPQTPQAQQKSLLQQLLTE
ASSAY METHOD TEXT: LXR HTR-FRET coactivator (b-SRC1) recruitment assay, LXRα
Assay type: biochemical
SETUP CONDITIONS: FRET 12-point dose response, GST-LXR LBD
READOUT TYPE: EC50

COc1ccc2c(c1C)C=C[C@@]1(C)[C@]23CC[C@]1(O)[C@H](C)[C@]1(OC(C)(C)[C@@H](C)[C@H]1O)O3 ... 31 µM
COc1ccc2c(c1CO)C=C[C@]1(C)[C@@H]3CC[C@]21O[C@@]1(OC(C)(C)[C@@H](C)[C@H]1O)[C@H]3C ... 11 µM
COc1ccc2c(c1C)CC(=O)[C@]1(C)[C@@H]3CC[C@]21O[C@@]1(OC(C)(C)[C@@H](C)[C@H]1O)[C@H]3C ... 24 µM
C[C@H]1[C@H](O)[C@@]2(OC1(C)C)O[C@]13CC[C@H]([C@@H]2C)[C@@]1(C)C=CC1=C3C=CC2=CC(=O)CC[C@@]21C ... 5.5 µM
Cc1c(O)ccc2c1C=C[C@]1(C)[C@@H]3CC[C@]21O[C@@]1(OC(C)(C)[C@@H](C)[C@H]1O)[C@H]3C ... 1.1 µM
COc1ccc2c(c1C)C=C[C@]1(C)[C@@H]3CC[C@]21O[C@@]1(OC(C)(C)[C@@H](C)[C@H]1O)[C@H]3C ... 1.4 µM
C[C@H]1[C@@H](O)[C@@]2(OC1(C)C)O[C@]13CC[C@H]([C@@H]2C)[C@@]1(C)[C@H](O)C=C1C3=CC(=O)C2=CC(=O)CC[C@@]21C ... 1 µM
C[C@H]1[C@@H](O)[C@]2(OC1(C)C)O[C@]13CC[C@H]([C@@H]2C)[C@@]1(C)CC=C1C3=CC(=O)C2=CC(=O)CC[C@@]21C ... 7.6 µM

====

STUDY TARGET: LXRβ (Homo sapiens)
Sequence (P55055 222-460 limits assumed): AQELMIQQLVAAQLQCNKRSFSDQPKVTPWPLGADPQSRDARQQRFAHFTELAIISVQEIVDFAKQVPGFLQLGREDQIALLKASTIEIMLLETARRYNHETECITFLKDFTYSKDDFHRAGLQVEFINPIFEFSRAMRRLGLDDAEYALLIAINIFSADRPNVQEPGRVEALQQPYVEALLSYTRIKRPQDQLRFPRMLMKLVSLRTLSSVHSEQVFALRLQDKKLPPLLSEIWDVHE
Sequence (Q15788 whole entry partner): as the sequence (Q15788 whole entry partner) above
ASSAY METHOD TEXT: LXR HTR-FRET coactivator (b-SRC1) recruitment assay, LXRβ
SETUP CONDITIONS: FRET 12-point dose response, GST-LXR LBD
pEC50: −log10 of the molar value.
Recorded measurements of pEC50, one per entry
READOUT TYPE: pEC50

C[C@H]1[C@@H](O)[C@]2(OC1(C)C)O[C@]13CC[C@H]([C@@H]2C)[C@@]1(C)CC=C1C3=CC(=O)C2=CC(=O)CC[C@@]21C [Compound 5] ... 4.62
COc1ccc2c(c1C)CC(=O)[C@]1(C)[C@@H]3CC[C@]21O[C@@]1(OC(C)(C)[C@@H](C)[C@H]1O)[C@H]3C [Compound 8] ... 4.51
COc1ccc2c(c1C)C=C[C@@]1(C)[C@]23CC[C@]1(O)[C@H](C)[C@]1(OC(C)(C)[C@@H](C)[C@H]1O)O3 [Compound 7] ... 4.47

====

Recorded measurements of pEC50, one per entry
STUDY TARGET: LXRβ (Homo sapiens)
ASSAY METHOD TEXT: LXR HTR-FRET coactivator (b-SRC1) recruitment assay, LXRβ
SETUP CONDITIONS: FRET 12-point dose response, GST-LXR LBD
pEC50: −log10 of the molar value.
READOUT TYPE: pEC50

COc1ccc2c(c1C)C=C[C@]1(C)[C@@H]3CC[C@]21O[C@@]1(OC(C)(C)[C@@H](C)[C@H]1O)[C@H]3C ... 4.60
Cc1c(O)ccc2c1C=C[C@]1(C)[C@@H]3CC[C@]21O[C@@]1(OC(C)(C)[C@@H](C)[C@H]1O)[C@H]3C ... 5.26
C[C@H]1[C@H](O)[C@@]2(OC1(C)C)O[C@]13CC[C@H]([C@@H]2C)[C@@]1(C)C=CC1=C3C=CC2=CC(=O)CC[C@@]21C ... 4.85
C[C@H]1[C@@H](O)[C@@]2(OC1(C)C)O[C@]13CC[C@H]([C@@H]2C)[C@@]1(C)[C@H](O)C=C1C3=CC(=O)C2=CC(=O)CC[C@@]21C ... 5.34
COc1ccc2c(c1CO)C=C[C@]1(C)[C@@H]3CC[C@]21O[C@@]1(OC(C)(C)[C@@H](C)[C@H]1O)[C@H]3C ... 4.62
